// values below are reported logP
- test: Partition coefficient, log P of the compound
- Type: physicochemical
- condition_details: octanol/water
experimental_endpoint: logP

| molecule | experimental_endpoint | quantitative_readout |
| --- | --- | --- |
| C[C@H]1CC[C@@H]2[C@@H](OC(=O)[C@]23CC(c2ccccc2Cl)=NO3)[C@]2(C)C(=O)C=C[C@@]12O | logP | 2.09 |
| COc1ccc(C2=NO[C@]3(C2)C(=O)O[C@@H]2[C@H]3CC[C@H](C)[C@]3(O)C=CC(=O)[C@@]23C)cc1OC | logP | 1.06 |
| C[C@H]1CC[C@@H]2[C@@H](OC(=O)[C@]23CC(c2ccc([N+](=O)[O-])cc2)N(c2ccccc2)O3)[C@]2(C)C(=O)C=C[C@@]12O (mixture of isomers) | logP | 3.15 |
| C[C@H]1CC[C@@H]2[C@@H](OC(=O)[C@]23CN3c2cccc([N+](=O)[O-])c2)[C@]2(C)C(=O)C=C[C@@]12O | logP | 1.31 |
| C[C@H]1CC[C@@H]2[C@@H](OC(=O)[C@]23CC(c2ccc(Br)cc2)N(c2ccccc2)O3)[C@]2(C)C(=O)C=C[C@@]12O (mixture of isomers) | logP | 4 |
| C[C@H]1CC[C@@H]2[C@@H](OC(=O)[C@]23CN3c2ccccc2[N+](=O)[O-])[C@]2(C)C(=O)C=C[C@@]12O | logP | 1.31 |
| COc1ccc(N2C[C@]23C(=O)O[C@@H]2[C@H]3CC[C@H](C)[C@]3(O)C=CC(=O)[C@@]23C)cc1 | logP | 1.41 |
| COC(=O)c1cccc(N2C[C@]23C(=O)O[C@@H]2[C@H]3CC[C@H](C)[C@]3(O)C=CC(=O)[C@@]23C)c1 | logP | 1.52 |
| C[C@H]1CC[C@@H]2[C@@H](OC(=O)[C@]23CC(c2c4ccccc4cc4ccccc24)=NO3)[C@]2(C)C(=O)C=C[C@@]12O | logP | 3.71 |
| C[C@H]1CC[C@@H]2[C@@H](OC(=O)[C@]23CC(c2c(Cl)cccc2Cl)=NO3)[C@]2(C)C(=O)C=C[C@@]12O | logP | 2.67 |
| C[C@H]1CC[C@@H]2[C@@H](OC(=O)[C@]23CC(c2ccc(F)cc2)N(c2ccccc2)O3)[C@]2(C)C(=O)C=C[C@@]12O (mixture of isomers) | logP | 3.35 |
| C[C@H]1CC[C@@H]2[C@@H](OC(=O)[C@]23CC(c2ccc(C#N)cc2)N(c2ccccc2)O3)[C@]2(C)C(=O)C=C[C@@]12O (mixture of isomers) | logP | 2.94 |
| C[C@H]1CC[C@@H]2[C@@H](OC(=O)[C@]23CC(c2cccc([N+](=O)[O-])c2)=NO3)[C@]2(C)C(=O)C=C[C@@]12O | logP | 1.37 |

----------
- System: PC-3
- test: Cytotoxicity against human PC3 cells assessed as cell growth after 48 hrs by sulforhodamine B assay
- Type: functional, cell-based
- condition_details: Homo sapiens, PC-3, 48 h
pIC50: −log10 of the molar value.

| molecule | pIC50 |
| --- | --- |
| C[C@H]1CC[C@@H]2[C@@H](OC(=O)[C@]23CC(c2ccc(Cl)cc2)=NO3)[C@]2(C)C(=O)C=C[C@@]12O | 4.31 |
| C[C@H]1CC[C@@H]2[C@@H](OC(=O)[C@]23CC(c2c(Cl)cccc2Cl)N(c2ccccc2)O3)[C@]2(C)C(=O)C=C[C@@]12O (stereo partly drawn) | 5.62 |
| Cc1cccc(N2C[C@]23C(=O)O[C@@H]2[C@H]3CC[C@H](C)[C@]3(O)C=CC(=O)[C@@]23C)c1 | 4.21 |
| C[C@H]1CC[C@@H]2[C@@H](OC(=O)[C@]23CC(c2ccccc2Br)=NO3)[C@]2(C)C(=O)C=C[C@@]12O | 4.29 |
| C[C@H]1CC[C@@H]2[C@@H](OC(=O)[C@]23CC(c2cccc(F)c2)N(c2ccccc2)O3)[C@]2(C)C(=O)C=C[C@@]12O (stereo partly drawn) | 5.32 |
| COc1ccc(C2=NO[C@]3(C2)C(=O)O[C@@H]2[C@H]3CC[C@H](C)[C@]3(O)C=CC(=O)[C@@]23C)cc1OC | 4.60 |
| C[C@H]1CC[C@@H]2[C@@H](OC(=O)[C@]23CC(c2ccc([N+](=O)[O-])cc2)N(c2ccccc2)O3)[C@]2(C)C(=O)C=C[C@@]12O (stereo partly drawn) | 5.08 |
| COc1cc(C2=NO[C@]3(C2)C(=O)O[C@@H]2[C@H]3CC[C@H](C)[C@]3(O)C=CC(=O)[C@@]23C)ccc1O | 4.80 |
| Cc1ccccc1C1C[C@@]2(ON1c1ccccc1)C(=O)O[C@@H]1[C@H]2CC[C@H](C)[C@]2(O)C=CC(=O)[C@@]12C (stereo partly drawn) | 4.82 |
| COc1cccc(C2C[C@@]3(ON2c2ccccc2)C(=O)O[C@@H]2[C@H]3CC[C@H](C)[C@]3(O)C=CC(=O)[C@@]23C)c1 (stereo partly drawn) | 4.92 |
| C[C@H]1CC[C@@H]2[C@@H](OC(=O)[C@]23CC(c2ccc(Cl)cc2)N(c2ccccc2)O3)[C@]2(C)C(=O)C=C[C@@]12O (stereo partly drawn) | 5.11 |
| C[C@H]1CC[C@@H]2[C@@H](OC(=O)[C@]23CN3c2ccccc2)[C@]2(C)C(=O)C=C[C@@]12O | 4.97 |
| C[C@H]1CC[C@@H]2[C@@H](OC(=O)[C@]23CN3c2cccc(Cl)c2)[C@]2(C)C(=O)C=C[C@@]12O | 4.06 |

----------
- Tested on: DU-145
- test: Cytotoxicity against human DU145 cells assessed as cell growth after 48 hrs by sulforhodamine B assay
- Assay type: functional, cell-based
- condition_details: du-145
pIC50: −log10 of the molar value.
// values below are reported pIC50

| compound | pIC50 |
| --- | --- |
| Cc1ccccc1C1C[C@@]2(ON1c1ccccc1)C(=O)O[C@@H]1[C@H]2CC[C@H](C)[C@]2(O)C=CC(=O)[C@@]12C (stereo partly specified) | 5.29 |
| COc1cccc(C2C[C@@]3(ON2c2ccccc2)C(=O)O[C@@H]2[C@H]3CC[C@H](C)[C@]3(O)C=CC(=O)[C@@]23C)c1 (stereo partly specified) | 4.96 |
| C[C@H]1CC[C@@H]2[C@@H](OC(=O)[C@]23CC(c2ccccc2F)N(c2ccccc2)O3)[C@]2(C)C(=O)C=C[C@@]12O (stereo partly specified) | 5.22 |
| COc1ccc(C2C[C@@]3(ON2c2ccccc2)C(=O)O[C@@H]2[C@H]3CC[C@H](C)[C@]3(O)C=CC(=O)[C@@]23C)cc1 (stereo partly specified) | 5.15 |
| C[C@H]1CC[C@@H]2[C@@H](OC(=O)[C@]23CC(c2ccc(Cl)cc2)N(c2ccccc2)O3)[C@]2(C)C(=O)C=C[C@@]12O (stereo partly specified) | 5.22 |
| Cc1ccc(C2C[C@@]3(ON2c2ccccc2)C(=O)O[C@@H]2[C@H]3CC[C@H](C)[C@]3(O)C=CC(=O)[C@@]23C)cc1 (stereo partly specified) | 5.20 |

----------
- test: Partition coefficient, log P of the compound
- Type: physicochemical
- condition_details: octanol/water

| molecule | logP |
| --- | --- |
| C[C@H]1CC[C@@H]2[C@@H](OC(=O)[C@]23CN3c2cccc(Cl)c2)[C@]2(C)C(=O)C=C[C@@]12O | 2.03 |
| C[C@H]1CC[C@@H]2[C@@H](OC(=O)[C@]23CC(c2ccc(N(C)C)cc2)=NO3)[C@]2(C)C(=O)C=C[C@@]12O | 1.51 |
| C[C@H]1CC[C@@H]2[C@@H](OC(=O)[C@]23CC(c2ccccc2Cl)N(c2ccccc2)O3)[C@]2(C)C(=O)C=C[C@@]12O (mixture of isomers) | 3.87 |
| C[C@H]1CC[C@@H]2[C@@H](OC(=O)[C@]23CC(c2ccc(Cl)cc2)=NO3)[C@]2(C)C(=O)C=C[C@@]12O | 2.09 |
| Cc1ccccc1C1=NO[C@]2(C1)C(=O)O[C@@H]1[C@H]2CC[C@H](C)[C@]2(O)C=CC(=O)[C@@]12C | 1.86 |
| Cc1ccc(N2C[C@]23C(=O)O[C@@H]2[C@H]3CC[C@H](C)[C@]3(O)C=CC(=O)[C@@]23C)cc1 | 1.83 |
| C[C@H]1CC[C@@H]2[C@@H](OC(=O)[C@]23CC(c2cccc(Cl)c2)N(c2ccccc2)O3)[C@]2(C)C(=O)C=C[C@@]12O (mixture of isomers) | 3.87 |
| C[C@H]1CC[C@@H]2[C@@H](OC(=O)[C@]23CC(c2ccccc2)N(c2ccccc2)O3)[C@]2(C)C(=O)C=C[C@@]12O (mixture of isomers) | 3.19 |
| Cc1cccc(N2C[C@]23C(=O)O[C@@H]2[C@H]3CC[C@H](C)[C@]3(O)C=CC(=O)[C@@]23C)c1 | 1.83 |
| C[C@H]1CC[C@@H]2[C@@H](OC(=O)[C@]23CC(c2ccccc2F)N(c2ccccc2)O3)[C@]2(C)C(=O)C=C[C@@]12O (mixture of isomers) | 3.35 |

Origin of measurements: ChEMBL document CHEMBL1806428
